Assign soluble fraction (log2) to each entry below.
Test: soluble fraction after stress (log2 fold change); higher = more stays soluble; pooled small domains, quantitative proteomics
Conditions: stress: 50 degC

INPUT: Please indicate soluble fraction (log2) recorded for HMSTPVPIEGQPTENLNLRDQPSTSGKILTTIPKGKTVTILSEKNANGWYKVSYNGKTGYVSGSYFKVTK
OUTPUT: 0.317

INPUT: Please indicate soluble fraction (log2) recorded for HMGMTNRIKELRKAKGYRQEDLAAALGVSRQTIIAVENNKYNPTLELAMKLARHLQTTVEELFQL
OUTPUT: -0.758

INPUT: Please indicate soluble fraction (log2) recorded for HMLNDKLQTLFSLFPAVDKDLKKKGVTRQILWEQYKRNHPDGVGRSQFNYYYAQWKDQVNPT
OUTPUT: -1.47

INPUT: Please indicate soluble fraction (log2) recorded for HMRQSSLRTRELLIDAARQLFARFGVEKTTMNDIAEASKRGRRTVYMYFNSKSDVFYAVVGRE
OUTPUT: -0.212

INPUT: Please indicate soluble fraction (log2) recorded for HMTGKVSHGERKSVLVSLAGSMRARGMSIDAVRAGLYADNEKRFDPPLDERDIEDVLNSAKKWGDP
OUTPUT: -0.322

INPUT: Please indicate soluble fraction (log2) recorded for HMSLNHDIWVQELKEKRSGYGISQSRLAIAAGMTRQYLSDIETGKVLPSAERKAAITEALERFNPD
OUTPUT: -0.368

INPUT: Please indicate soluble fraction (log2) recorded for HMSLDLERAVALLSLPRPVGNHPEDGELVEAGIGRYGPYVKHGSKYANLPDADEVFTIGMNRAVEVLAAK
OUTPUT: -0.0399

INPUT: Please indicate soluble fraction (log2) recorded for HMLGITEGSLVRVIRSPNFGKIGTVAELPAELRMMESETMVRIAIVEIEGTNFEIPRSNLEVLET
OUTPUT: -1.55

----------
Assign soluble fraction (log2) to each entry below.
Experiment: soluble fraction after stress (log2 fold change); higher = more stays soluble; pooled small domains, quantitative proteomics
Conditions: stress: 50 degC
The answer should be a number; do not append a unit.

INPUT: Please indicate soluble fraction (log2) recorded for HMRAAFEHLTIGQTVSGLVKSQARGVSLVEIEGQTVAMRLPQPVAVGDTLRLRFAGHMPQPVFLLDT
OUTPUT: -0.132

INPUT: Please indicate soluble fraction (log2) recorded for HMNTEEVGSYLKKLRLEHSFTQKELAGKLYITHQAVSNWEKGKALPDIGILSQLGDIYGISIDNLLLK
OUTPUT: -1.79

INPUT: Please indicate soluble fraction (log2) recorded for HMEKALEVKYQKMVELLGDQSTFYVDEVKKIFPEMKKSSLYWNMSKLVEGGYLRRIRNGVYAFNE
OUTPUT: -0.48

INPUT: Please indicate soluble fraction (log2) recorded for HMALRFMAYGRINGTNVHFRTGASASTASLGRYSRGTEFGVYDKIGGWYRVRLLSTGQEGYVYSRYLTLTG
OUTPUT: -2.67

INPUT: Please indicate soluble fraction (log2) recorded for HMKSQSIFNVKKGDTLSHIAVHVLKKNKQKVTPEAINKMVSNIAFRNKIKNPDLIFPGQKLVLEY
OUTPUT: 0.117

INPUT: Please indicate soluble fraction (log2) recorded for HMELDMTFGEKIQKLRKESGLSQEELSYQLGVSRQAISKWERDSGYPETEKIVRMSKIFDVTLDYLLNE
OUTPUT: -0.458

INPUT: Please indicate soluble fraction (log2) recorded for HMMEERVIEFANVLRRNGVRVSLAENMDAFRALKSLGISDPLLFRHALRATLIKRGSDIQPFEELFDFFFL
OUTPUT: -1.26

INPUT: Please indicate soluble fraction (log2) recorded for HMQSEISRIGRILKERRLQLGYTQEYAAEKAGISYSYYTKIERGQQLPSLEVAMVLSKTFSLSMDRWL
OUTPUT: -4.77

----------
Test: soluble fraction after stress (log2 fold change); higher = more stays soluble; pooled small domains, quantitative proteomics
Settings: stress: 50 degC
measured endpoint: soluble fraction (log2)
The answer should be a number; do not append a unit.

INPUT: Please indicate soluble fraction (log2) recorded for HMGMTDEELNREEERVVAELEAKDEEELTIYNEEDLTFEETLDLPEGSLMRDRENGMIYLKVLDIWMPY
OUTPUT: -0.54

INPUT: Please indicate soluble fraction (log2) recorded for HMIEKVNDYVVRFANVNGTGSASANNLFALAIYRMGVPVTPKNIFPSNIQGLPTWFEVRVSGSGYLARRG
OUTPUT: 0.01

INPUT: Please indicate soluble fraction (log2) recorded for HMSYLDTLPGRRVAAQGAITGDAGTLAVDGDTWSARVEPGAPDVAPGDEVTVLRIDGATLVVRPLP
OUTPUT: -0.0478

INPUT: Please indicate soluble fraction (log2) recorded for HMEIKDQADAYGKMEPASAAAILSEMTNDLTLVAKILDSMQTSKSALILQNMKPTTAAQVTTKMTAMK
OUTPUT: 0.0219

----------
Assign soluble fraction (log2) to each entry below.
Test: soluble fraction after stress (log2 fold change); higher = more stays soluble; pooled small domains, quantitative proteomics
Details: stress: 50 degC
The answer should be a number; do not append a unit.

INPUT: Please indicate soluble fraction (log2) recorded for HMSGIVPAAPPLRPDLDIKWHTGDKVRHAKWGEGTIVSVKGEGEETELKIAFPGQGIRPFMQKYAPITR
OUTPUT: 0.163

INPUT: Please indicate soluble fraction (log2) recorded for HMSHPNAPLTPEGRRRLAVLIVEDGWTIRRAAERFQVSPATASKWARRYRAGESLTDRSSRP
OUTPUT: -1.58

INPUT: Please indicate soluble fraction (log2) recorded for HMNDTLGVNIKRLRKEKGMTQDEVAKAVYTTRYNILRYESGKMTPSSEVIERLEKALGVPTGSLAQ
OUTPUT: -0.332

INPUT: Please indicate soluble fraction (log2) recorded for HMDIFSSFVAIKNANVRELPTAKSAQVATLSKGSEVTALGKVKGKNWYLVARDGKELGYVFGSLIAEAET
OUTPUT: -1.29

INPUT: Please indicate soluble fraction (log2) recorded for HMNEIALETAIEDVESFIQMQNRNLAFSIDEDTDRAVVTVRDSDSGDVIRQIPSEEVLALAERIQDLQQD
OUTPUT: 0.136

INPUT: Please indicate soluble fraction (log2) recorded for HMTVEMYIGKTANVLETVTENNGRIAIFGEEWQAKSLNGETIEKGAQAKIVKNDSIIMYVVPI
OUTPUT: 0.0967

INPUT: Please indicate soluble fraction (log2) recorded for HMISVENLSNREFEIFQLIGNGFSTKEMAKKLNLSIYTVESHKKNIKEKLKLKNSSDLSKYAIQWVIMQN
OUTPUT: -0.503

INPUT: Please indicate soluble fraction (log2) recorded for HMENFKVFMKAVQEVSPVPVRFDEISSGAKGYYSNTEKEIVIQNGMSESQTMKTGIHEVTHAMLHDRDF
OUTPUT: 0.113

----------
Assay: soluble fraction after stress (log2 fold change); higher = more stays soluble; pooled small domains, quantitative proteomics
Conditions: stress: 50 degC
Assign soluble fraction (log2) to each entry below.
The answer should be a number; do not append a unit.

INPUT: Please indicate soluble fraction (log2) recorded for HMTVTISPGYEGRLLRSYLKNTLSLSTSALARLKTREDGITVNGVRVTVRYVLHAGDLLQLAVD
OUTPUT: -0.597

INPUT: Please indicate soluble fraction (log2) recorded for HMFPTLNEDEQTIVSALQKINDQPINTLSIHTALPIPRLTSLLFQLEIKGVIKQLAGGTYHVL
OUTPUT: -0.427

INPUT: Please indicate soluble fraction (log2) recorded for HMNKDEFLNELKSYLSILEDEEQADILEEYTQHIDMKISTGLSEAEAIRDFGNVSELAAQILEAY
OUTPUT: -0.222

INPUT: Please indicate soluble fraction (log2) recorded for HMLHSEDATVVRQAIPLLERHVDAATVAVARRNLAQLEQFGRYPRRNQALGRISNPAENAYLRAER
OUTPUT: 0.0897

INPUT: Please indicate soluble fraction (log2) recorded for HMGPTLSPAEKRVFEVIPYDAILQDMVIRAAELPPGEVLAALTTLELKGLIKRLPGNLVMRRAR
OUTPUT: 0.0188

INPUT: Please indicate soluble fraction (log2) recorded for HMQMKDRILRIMEHEGISPSKFAEEIGIQRSAMSHIISGRNNPSLDVLTKIMQRFTYVDTDWLLFGKGSMV
OUTPUT: -0.737

INPUT: Please indicate soluble fraction (log2) recorded for HMSDKPRYYINGNTLFISDKSVKKVLFSDLSGRSILHTTETAINIATFRGAHILTVIYTDGSTKSEVIF
OUTPUT: -1.29

INPUT: Please indicate soluble fraction (log2) recorded for HMTYPGSIALVNPKHEAFVQHYVATSGSRGQAAKLAGVTTTTARNLLQDVEATARIRYLNAQQFQ
OUTPUT: -0.107

Data provenance: the domain aggregation screens of Martell et al. (2025)
